Test system: HeLa cells
Assay: MTT assay for cytotoxicity
Conditions: 40 nM, 2 h
API: label(entry) gives fulfilled if the entry's MTT (% Cell Survival) 40 nM is strictly smaller than 80%; on equality or larger values it gives not fulfilled.

Hi there! Is MTT (% Cell Survival) 40 nM for Cc1noc(C)c1B(O)O below 80%, do you know?
not fulfilled

Next compound: O=Cc1ccc(B(O)O)o1
fulfilled

Would you kindly repeat that for OB(O)c1c(F)c(F)c(F)c(F)c1F ?
fulfilled

Okay, and OB(O)c1cccnc1Br ?
not fulfilled

Record: CN(C)c1cccc(B(O)O)c1
not fulfilled

* * *

Test system: HeLa cells
Experiment: MTT assay for cytotoxicity
Conditions: 40 nM, 2 h
Task for the reader: assign each of the following compounds its reported MTT (% Cell Survival) 40 nM.
Answer format reminder: number followed by unit.

Example entries begin here.
In [3]: df
Out[3]:
                                   compound                   value_kind    result
0  OB(O)c1ccc2ccccc2c1 [2-napthylboronic acid]  MTT (% Cell Survival) 40 nM  24.3831%
1  OB(O)c1cc2ccccc2nc1Cl [2-chloro-3-quinolineboronic acid]  MTT (% Cell Survival) 40 nM  30.1105%
2  OB(O)c1ccccc1O [2-hydroxyphenylboronic acid]  MTT (% Cell Survival) 40 nM  70.3314%
3  CC(C)(C)OC(=O)n1cccc1B(O)O [N-boc-2-pyrroleboronic acid]  MTT (% Cell Survival) 40 nM  60.6873%
4  O=Cc1sccc1B(O)O [2-formyl-3-thiopheneboronic acid]  MTT (% Cell Survival) 40 nM  55.3376%

# map each compound to its MTT (% Cell Survival) 40 nM
1. O=c1[nH]cc(B(O)O)c(=O)[nH]1 [uracil-5-boronic acid]
2. OB(O)c1cccs1 [2-thienylboronic acid]
3. OB(O)c1cccc2cnccc12 [5-isoquinolineboronic acid]

["68.5083%", "53.48%", "75.80%"]

Batch of 6 compounds: report MTT (% Cell Survival) 40 nM for each.
1. Cn1c(B(O)O)cc2ccccc21 [N-methylindole-2-boronic acid]
2. O=Cc1ccoc1B(O)O [3-formylfuran-2-boronic acid]
3. OB(O)c1cccc2c1Sc1ccccc1S2 [thianthrene-1-boronic acid]
4. COc1ccc(C#N)cc1B(O)O [5-cyano-2-methoxyphenylboronic acid]
5. OB(O)c1cccc2c1oc1ccccc12 [4-dibenzofuranboronic acid]
6. CCCOc1ccccc1B(O)O [2-propoxyphenylboronic acid]

63.3131%
107.84%
64.19%
81.55%
71.48%
45.7459%

* * *

System: HeLa cells
Assay: MTT assay for cytotoxicity
Conditions: 40 nM, 2 h
value_kind: MTT (% Cell Survival) 40 nM (%)
Answers are plain numbers, in %.

Use these answered entries as a reference point.
>>> df
                                   compound  assayed_target  measurement_unit  result
0                         N#Cc1ccc(B(O)O)s1      HeLa cells                 %   80.56
1                        CCOc1ccc(B(O)O)cn1      HeLa cells                 %   81.40
2                        COc1ccc(F)cc1B(O)O      HeLa cells                 %   84.22
3                        N#Cc1ccc(B(O)O)cc1      HeLa cells                 %   60.40
4  CC(C)OB(CBr)OC(C)C [diisopropyl(bromomethyl)boronate]      HeLa cells                 %   81.27
5                     NC(=O)c1ccc(B(O)O)cc1      HeLa cells                 %   86.57
6                CCS(=O)(=O)c1ccc(B(O)O)cc1      HeLa cells                 %   67.61
7                   OB(O)c1cnn(Cc2ccccc2)c1      HeLa cells                 %  100.88

Go through the items and report each one's MTT (% Cell Survival) 40 nM.
1. OB(O)c1cc2cc(Br)ccc2s1
2. OB(O)C1CC1

1: 71.83; 2: 81.55
